System: SW-620 colon
Test: NCI-60 one-dose screen, 48 h (100 = growth as untreated, 0 = no growth, -100 = all killed)
Settings: 10 µM unless noted
This is part of a sample that, as a whole, favours compounds with a hit. Of some 83,000 tested, about 20% had one in any assay.
Criterion: growth meeting or surpassing 80%. Met: Criterion met. Not met: Criterion not met.

Example entries begin here.
smilesrepresentation=CO[C@H]1[C@H](O[C@@H]2C[C@@H]3C/C=C/C(=O)O[C@@H](CO)C[C@H](O)[C@@H]4C[C@H](C)[C@H](C/C=C\C=C\[C@H](C)C[C@H](C2)O3)O4)O[C@@H](C)[C@H](O)[C@H]1O testedtarget="SW-620 colon" assignedcategory="Criterion not met"
smilesrepresentation=CC[C@@H](C)C(=O)O[C@H]1[C@H](O)[C@H]2[C@@H](CN3C[C@@H](C)CC[C@H]3[C@@]2(C)O)[C@@H]2C[C@]34O[C@]5(O)[C@@H](OC(=O)[C@@](C)(O)CC)CC[C@@]3(C)[C@@H]5[C@@H](OC(C)=O)[C@@H](OC(C)=O)[C@H]4[C@@]21O testedtarget="SW-620 colon" assignedcategory="Criterion met"
smilesrepresentation=CCCCS(=O)(=O)Cl testedtarget="SW-620 colon" assignedcategory="Criterion met"
smilesrepresentation=N#CCN(CC#N)[N+](=O)[O-] testedtarget="SW-620 colon" assignedcategory="Criterion met"
smilesrepresentation=CC1=C(C)C(=O)O[C@@H]([C@](C)(O)[C@]2(O)CC[C@@]3(O)[C@@H]4C[C@H]5O[C@]56CC=CC(=O)[C@]6(C)[C@H]4CC[C@]23C)C1 testedtarget="SW-620 colon" assignedcategory="Criterion not met"

Determine whether this compound has growth no lower than 80%: Cc1cc(Br)c([N+](=O)[O-])cc1[N+](=O)[O-]
Criterion not met

Same read-out for Nc1ccc(S(=O)(=O)F)cc1 ?
Criterion met

Values were extracted from PubChem BioAssay (NCI).
